The following molecules are listed with their measured MIC Enterococcus faecalis (GC 2691) values.
- Test system: Enterococcus sp.
- run description: in vitro antibacterial evaluation, MIC by broth dilution
- Format: cell-based
- settings: broth dilution, 18 hours at 35° C.

molecule: CC(c1ccccc1)C1NC(=O)CNC(=O)C(CO)NC(=O)C(C(O)C2CNC(=N)N2C2OC(CO)C(O)C3OC(C)(C)OC32)NC(=O)C(C(O)C2CNC(=N)N2)NC(=O)C(Cc2ccc(OC3OC(CO)C(OC4OC(CO)C(O)C5OC(C)(C)OC45)C4OC(C)(C)OC34)cc2)NC1=O (stereo not shown) [Example 229a]
MIC Enterococcus faecalis (GC 2691): >128 µg/mL
//
molecule: CC(C)=CCCC(C)=CCCC(C)=CCOc1cccc(C2OCC3OC(OC4C(CO)OC(Oc5ccc(CC6NC(=O)C(C(C)c7ccccc7)NC(=O)CNC(=O)C(CO)NC(=O)C(C(O)C7CNC(=N)N7C7OC(CO)C(O)C(O)C7O)NC(=O)C(C(O)C7CNC(=N)N7)NC6=O)cc5)C(O)C4O)C(O)C(O)C3O2)c1 (stereo not shown) [Example 185]
MIC Enterococcus faecalis (GC 2691): >64 µg/mL
//
molecule: CC(c1ccccc1)C1NC(=O)CNC(=O)C(CO)NC(=O)C(C(O)C2CN(c3nc4ccccc4o3)C(=N)N2C2OC(CO)C(O)C(O)C2O)NC(=O)C(C(O)C2CNC(=Nc3nc4ccccc4o3)N2)NC(=O)C(Cc2ccc(OC3OC(CO)C(OC4OC(CO)C(O)C(O)C4O)C(O)C3O)cc2)NC1=O (stereo not shown) [Example 93]
MIC Enterococcus faecalis (GC 2691): >128 µg/mL
//
molecule: CC(c1ccccc1)C1NC(=O)CNC(=O)C(CO)NC(=O)C(C(O)C2CNC(=N)N2C2OC(CO)C(O)C3OC(C)(C)OC32)NC(=O)C(C(O)C2CNC(=N)N2)NC(=O)C(Cc2ccc(OC3OC(CO)C(OC4OC5COC(C)(C)OC5C5OC(C)(C)OC45)C4OC(C)(C)OC34)cc2)NC1=O (stereo not shown) [Example 229b]
MIC Enterococcus faecalis (GC 2691): >128 µg/mL

----------
The following molecules are listed with their measured MIC Streptococcus pneumoniae (GC 4565) values.
- System: Streptococcus sp.
- run description: in vitro antibacterial evaluation, MIC by broth dilution
- Type: cell-based
- settings: Streptococcus pneumoniae (GC 4565); broth dilution, 18 hours at 35° C.
- Description: Methods for in vitro Antibacterial Evaluation (Table 1) […]
parameter: MIC Streptococcus pneumoniae (GC 4565)

molecule: CC(C)CC1OCC2OC(OC3C(CO)OC(Oc4ccc(CC5NC(=O)C(C(C)c6ccccc6)NC(=O)CNC(=O)C(CO)NC(=O)C(C(O)C6CNC(=N)N6C6OC(CO)C(O)C(O)C6O)NC(=O)C(C(O)C6CNC(=N)N6)NC5=O)cc4)C(O)C3O)C(O)C(O)C2O1 (stereo not shown) [Example 107]
parameter: MIC Streptococcus pneumoniae (GC 4565)
value measured: <0.12 µg/mL
--
molecule: CC(c1ccccc1)C1NC(=O)CNC(=O)C(CO)NC(=O)C(C(O)C2CNC(=N)N2C2OC(CO)C(O)C(O)C2O)NC(=O)C(C(O)C2CNC(=N)N2)NC(=O)C(Cc2ccc(OC3OC(CO)C(OC4OC5COC(Cc6ccc(F)cc6)OC5C(O)C4O)C(O)C3O)cc2)NC1=O (stereo not shown) [Example 121]
parameter: MIC Streptococcus pneumoniae (GC 4565)
value measured: <0.06 µg/mL
--
molecule: CC(c1ccccc1)C1NC(=O)CNC(=O)C(CO)NC(=O)C(C(O)C2CNC(=N)N2C2OC(CO)C(O)C(O)C2O)NC(=O)C(C(O)C2CNC(=N)N2)NC(=O)C(Cc2ccc(OC3OC(CO)C(OC4OC5COC(c6cc7c(cc6Cl)OCO7)OC5C(O)C4O)C(O)C3O)cc2)NC1=O (stereo not shown) [Example 158]
parameter: MIC Streptococcus pneumoniae (GC 4565)
value measured: <0.06 µg/mL
--
molecule: CC(c1ccccc1)C1NC(=O)CNC(=O)C(CO)NC(=O)C(C(O)C2CNC(=N)N2C2OC(CO)C(O)C(O)C2O)NC(=O)C(C(O)C2CNC(=N)N2)NC(=O)C(Cc2ccc(OC3OC(CO)C(OC4OC5COC(C67CC8CC(CC(C8)C6)C7)OC5C(O)C4O)C(O)C3O)cc2)NC1=O (stereo not shown) [Example 127]
parameter: MIC Streptococcus pneumoniae (GC 4565)
value measured: <0.12 µg/mL
--
molecule: CC(c1ccccc1)C1NC(=O)CNC(=O)C(CO)NC(=O)C(C(O)C2CNC(=N)N2C2OC(CO)C(O)C(O)C2O)NC(=O)C(C(O)C2CNC(=N)N2)NC(=O)C(Cc2ccc(OC3OC(CO)C(OC4OC5COC(c6ccccc6)OC5C(O)C4O)C(O)C3O)cc2)NC1=O (stereo not shown) [Example 104]
parameter: MIC Streptococcus pneumoniae (GC 4565)
value measured: <0.12 µg/mL
--
molecule: CC(c1ccccc1)C1NC(=O)CNC(=O)C(CO)NC(=O)C(C(O)C2CNC(=N)N2C2OC(CO)C(O)C(O)C2O)NC(=O)C(C(O)C2CNC(=N)N2)NC(=O)C(Cc2ccc(OC3OC(CO)C(OC4OC5COC(CC(C)(C)C)OC5C(O)C4O)C(O)C3O)cc2)NC1=O (stereo not shown) [Example 110]
parameter: MIC Streptococcus pneumoniae (GC 4565)
value measured: <0.5 µg/mL
--
molecule: CCCC(CCC)C(=O)OCC1OC(OC2C(CO)OC(Oc3ccc(CC4NC(=O)C(C(C)c5ccccc5)NC(=O)CNC(=O)C(CO)NC(=O)C(C(O)C5CNC(=N)N5C5OC(CO)C(O)C(O)C5O)NC(=O)C(C(O)C5CNC(=N)N5)NC4=O)cc3)C(O)C2O)C(O)C(O)C1O (stereo not shown) [Example 99c]
parameter: MIC Streptococcus pneumoniae (GC 4565)
value measured: <0.5 µg/mL

----------
Each entry below carries its reported MIC Coagulase Negative Staphylococcus (GC 4551).
- Test system: Staphylococcus sp.
- run description: in vitro antibacterial evaluation, MIC by broth dilution
- Format: cell-based
- settings: strain GC 4551; broth dilution, 18 hours at 35° C.
- Source text: Methods for in vitro Antibacterial Evaluation (Table 1) […]
parameter: MIC Coagulase Negative Staphylococcus (GC 4551)

compound: CC(c1ccccc1)C1NC(=O)CNC(=O)C(CO)NC(=O)C(C(O)C2CNC(=N)N2C2OC(CO)C(O)C(O)C2O)NC(=O)C(C(O)C2CNC(=N)N2)NC(=O)C(Cc2ccc(O)c(N(C)C)c2)NC1=O (stereo not shown) [Example 12]
value measured: >128 µg/mL
//
compound: CCC(=O)Nc1cc(CC2NC(=O)C(C(C)c3ccccc3)NC(=O)CNC(=O)C(CO)NC(=O)C(C(O)C3CNC(=N)N3C3OC(CO)C(O)C(O)C3O)NC(=O)C(C(O)C3CNC(=N)N3)NC2=O)ccc1O (stereo not shown) [Example 14]
value measured: >128 µg/mL
//
compound: CC(c1ccccc1)C1NC(=O)CNC(=O)C(CO)NC(=O)C(C(O)C2CN(Cc3ccccc3-c3ccccc3)C(=N)N2C2OC(CO)C(O)C(O)C2O)NC(=O)C(C(O)C2CNC(=N)N2)NC(=O)C(Cc2ccc(OC3OC(CO)C(OC4OC(CO)C(O)C(O)C4O)C(O)C3O)cc2)NC1=O (stereo not shown) [Example 65]
value measured: >128 µg/mL
//
compound: CC(c1ccccc1)C1NC(=O)CNC(=O)C(CO)NC(=O)C(C(O)C2CNC(=N)N2C2OC(CO)C(O)C(O)C2O)NC(=O)C(C(O)C2CNC(=N)N2)NC(=O)C(Cc2ccc(O)c(NC(=S)Nc3cc(C(F)(F)F)cc(C(F)(F)F)c3)c2)NC1=O (stereo not shown) [Example 24]
value measured: >64 µg/mL

----------
- Test system: Staphylococcus sp.
- run description: in vitro antibacterial evaluation, MIC by broth dilution
- Type: cell-based
- settings: strain GC 4549; broth dilution, 18 hours at 35° C.
parameter: MIC Coagulase Negative Staphylococcus (GC 4549)

compound: CC(c1ccccc1)C1NC(=O)CNC(=O)C(CO)NC(=O)C(C(O)C2CN(Cc3ccc(-c4ccccc4)cc3)C(=N)N2C2OC(CO)C(O)C(O)C2O)NC(=O)C(C(O)C2CNC(=N)N2)NC(=O)C(Cc2ccc(OC3OC(CO)C(OC4OC(CO)C(O)C(O)C4O)C(O)C3O)cc2)NC1=O (centres unmarked) [Example 66a]
value measured: >128 µg/mL
//
compound: CCC(=O)Nc1cc(CC2NC(=O)C(C(C)c3ccccc3)NC(=O)CNC(=O)C(CO)NC(=O)C(C(O)C3CNC(=N)N3C3OC(CO)C(O)C(O)C3O)NC(=O)C(C(O)C3CNC(=N)N3)NC2=O)ccc1O (centres unmarked)
value measured: >128 µg/mL
//
compound: CC(c1ccccc1)C1NC(=O)CNC(=O)C(CO)NC(=O)C(C(O)C2CN(Cc3ccc(C(C)(C)C)cc3)C(=N)N2C2OC(CO)C(O)C(O)C2O)NC(=O)C(C(O)C2CNC(=N)N2)NC(=O)C(Cc2ccc(OC3OC(CO)C(OC4OC(CO)C(O)C(O)C4O)C(O)C3O)cc2)NC1=O (centres unmarked)
value measured: >128 µg/mL
//
compound: CC(C1CCCCC1)C1NC(=O)CNC(=O)C(CO)NC(=O)C(C(O)C2CNC(=N)N2C2OC(CO)C(O)C(O)C2O)NC(=O)C(C(O)C2CNC(=N)N2)NC(=O)C(C[C@H]2CC[C@@H](O)CC2)NC1=O (some centres unmarked)
value measured: >128 µg/mL
//
compound: CC(c1ccccc1)C1NC(=O)CNC(=O)C(CO)NC(=O)C(C(O)C2CNC(=N)N2C2OC(CO)C(O)C(O)C2O)NC(=O)C(C(O)C2CNC(=N)N2)NC(=O)C(Cc2ccc(O)c(NC(=S)Nc3cc(C(F)(F)F)cc(C(F)(F)F)c3)c2)NC1=O (centres unmarked)
value measured: >64 µg/mL
